# target.entity: cAMP-dependent protein kinase (PKA) (Mus musculus)
# procedure.details: PKA inhibitor IC50, Deep Quench method (Ponceau S/peptide P2, 14-3-3τ)
# Format: biochemical, murine
# Set-up: made in house
# settings: [ATP]=1 mM, 1 μM P2, 60 μM Ponceau S, 10 nM PKA
No end group written: not given here.
readout.name: IC50 (µM)
Answer format: numeric, µM implied, no suffix.

Q: State the recorded IC50 for this entry: GRTGRRNAI-NH2 (C-terminus assumed) [PKI 14-22]
Ans: 1.1

====

Field: % Fluorescence Enhancement. Provide a value for each of the substances that follow.
# target.entity: cAMP-dependent protein kinase (PKA) (Mus musculus)
# procedure.details: Control: phosphorylation-induced change in fluorescence of pyrene-labeled peptides in the absence of quenching dye
# Format: biochemical, murine
# Design: made in house
# settings: 5 μM peptide, 10 nM PKA, 10 μM 14-3-3τ, 1 mM ATP
Non-standard residues stand in square brackets, D forms with d. Primed or numbered codes have the meaning given here. *: point of attachment. Acetyl(1-pyrenyl) = O=C(Cc1ccc2ccc3cccc4ccc1c2c34)*; Aoc′ = aminooctanoic acid linker; Abu = CC[C@H](N)C(=O)O; AEEA = NCCOCCOCC(=O)O; Ava = NCCCCC(=O)O; βAla = NCCC(=O)O
Answer format: numeric, % implied, no suffix.

Q: State the recorded % Fluorescence Enhancement for this entry: Pyr-Abu-Gly-Arg-Thr-Gly-Arg-Arg-Phe-Ser-Tyr-Pro-amide ({Acetyl(1-pyrenyl)}-[Abu]GRTGRRFSYP-NH2; SMILES CC[C@H](NC(=O)Cc1ccc2ccc3cccc4ccc1c2c34)C(=O)NCC(=O)N[C@@H](CCCNC(=N)N)C(=O)N[C@H](C(=O)NCC(=O)N[C@@H](CCCNC(=N)N)C(=O)N[C@@H](CCCNC(=N)N)C(=O)N[C@@H](Cc1ccccc1)C(=O)N[C@@H](CO)C(=O)N[C@@H](Cc1ccc(O)cc1)C(=O)N1CCC[C@H]1C(N)=O)[C@@H](C)O) [Peptide P7]
Ans: 47

Q: State the recorded % Fluorescence Enhancement for this entry: Ac-Gly-Arg-Thr-Gly-Arg-Arg-Phe-Ser-Dap(Pyr)-Pro-amide [Peptide P1]
Ans: 0

Q: State the recorded % Fluorescence Enhancement for this entry: Pyr-BAla-Gly-Arg-Thr-Gly-Arg-Arg-Phe-Ser-Tyr-Pro-amide ({Acetyl(1-pyrenyl)}-[βAla]GRTGRRFSYP-NH2; SMILES C[C@@H](O)[C@H](NC(=O)[C@H](CCCNC(=N)N)NC(=O)CNC(=O)CCNC(=O)Cc1ccc2ccc3cccc4ccc1c2c34)C(=O)NCC(=O)N[C@@H](CCCNC(=N)N)C(=O)N[C@@H](CCCNC(=N)N)C(=O)N[C@@H](Cc1ccccc1)C(=O)N[C@@H](CO)C(=O)N[C@@H](Cc1ccc(O)cc1)C(=O)N1CCC[C@H]1C(N)=O) [Peptide P6]
Ans: 49

Q: State the recorded % Fluorescence Enhancement for this entry: Pyr-miniPEG™-Gly-Arg-Thr-Gly-Arg-Arg-Phe-Ser-Tyr-Pro-amide ({Acetyl(1-pyrenyl)-AEEA}-GRTGRRFSYP-NH2; SMILES C[C@@H](O)[C@H](NC(=O)[C@H](CCCNC(=N)N)NC(=O)CNC(=O)COCCOCCNC(=O)Cc1ccc2ccc3cccc4ccc1c2c34)C(=O)NCC(=O)N[C@@H](CCCNC(=N)N)C(=O)N[C@@H](CCCNC(=N)N)C(=O)N[C@@H](Cc1ccccc1)C(=O)N[C@@H](CO)C(=O)N[C@@H](Cc1ccc(O)cc1)C(=O)N1CCC[C@H]1C(N)=O) [Peptide P11]
Ans: 38

Q: State the recorded % Fluorescence Enhancement for this entry: Ac-Gly-Arg-Thr-Dap(Pyr)-Arg-Arg-Phe-Ser-Tyr-Pro-amide [Peptide P3]
Ans: 19

Q: State the recorded % Fluorescence Enhancement for this entry: Ac-Gly-Arg-Dap(Pyr)-Gly-Arg-Arg-Phe-Ser-Tyr-Pro-amide [Peptide P4]
Ans: 40

Q: State the recorded % Fluorescence Enhancement for this entry: Pyr-Ava-Gly-Arg-Thr-Gly-Arg-Arg-Phe-Ser-Tyr-Pro-amide ({Acetyl(1-pyrenyl)-Ava}-GRTGRRFSYP-NH2; SMILES C[C@@H](O)[C@H](NC(=O)[C@H](CCCNC(=N)N)NC(=O)CNC(=O)CCCCNC(=O)Cc1ccc2ccc3cccc4ccc1c2c34)C(=O)NCC(=O)N[C@@H](CCCNC(=N)N)C(=O)N[C@@H](CCCNC(=N)N)C(=O)N[C@@H](Cc1ccccc1)C(=O)N[C@@H](CO)C(=O)N[C@@H](Cc1ccc(O)cc1)C(=O)N1CCC[C@H]1C(N)=O) [Peptide P8]
Ans: 31

Q: State the recorded % Fluorescence Enhancement for this entry: Pyr-Aoc-Gly-Arg-Thr-Gly-Arg-Arg-Phe-Ser-Tyr-Pro-amide ({Acetyl(1-pyrenyl)-Aoc′}-GRTGRRFSYP-NH2) [Peptide P10]
Ans: 39

These entries and their values trace back to patent US20100041068A1.
